# System: DMS-273
# EXPERIMENT DESCRIPTION: NCI tumour cell line growth inhibition, 48 h
The source made the active and inactive calls. No stated cut-off is given here; in the data, active = GI50 up to about 1.1 µM and inactive = higher.
This listing pairs molecules with measured GI50.
QUANTITY KIND: GI50

INSERT INTO results (molecule, result) VALUES
  ('CCCN(CCCC(NC(C)=O)C(=O)NCc1ccccc1)C(=O)NC (stereo not given)', '> 100 µM (inactive)'),
  ('O=C1c2ccccc2OCC1/C=N/O (stereo not given)', '99.8 µM (inactive)'),
  ('CCN(CC)c1ccc(/N=N\c2ccc(-c3nc4ccc[n+](C)c4s3)cc2)cc1', '3.65 µM (inactive)'),
  ('CCOC(=O)C1C(NC(N)=O)N(Cc2ccccc2)C(=O)N1Cc1ccccc1 (stereo not given)', '> 100 µM (inactive)'),
  ('CC1CCC2C(C)C(=O)OC3OC4(C)CCC1C32OO4 (stereo not given)', '> 100 µM (inactive)'),
  ('COc1ccc(OC)c2[nH]c(Sc3c([N+](=O)[O-])ncn3C)nc12', '11.8 µM (inactive)'),
  ('Cc1ccc(S(=O)(=O)C(C#N)c2nc3ccccc3nc2-n2ccnc2)cc1 (stereo not given)', '> 100 µM (inactive)'),
  ('CC(C)(C)C1(c2ccc(C3(c4ccccc4)Oc4ccccc4S3)[nH]2)Oc2ccccc2S1 (stereo not given)', '> 100 µM (inactive)'),
  ('CCCc1nc(NC#N)nc(C(=O)NC23CC4CC(CC(C4)C2)C3)c1C', '> 100 µM (inactive)'),
  ('Cc1cc(OCC(O)CO)ccc1-c1ccccc1 (stereo not given)', '> 100 µM (inactive)'),
  ('C=CCn1c2ccccc2c2c(C)c3cnccc3c(C)c21', '6.92 µM (inactive)'),
  ('COc1cc(/C=C(/C#N)C(N)=O)ccc1O', '> 100 µM (inactive)'),
  ('CCCCCCCOc1ccc(/C=C\c2cc[n+](CCCCCCCC[n+]3ccc(/C=C\c4ccc(OCCCCCCC)cc4)cc3)cc2)cc1', '4.3 µM (inactive)'),
  ('COC(=O)C(Cc1nc2ccccc2nc1O)C(=O)C(=O)Nc1ccc([N+](=O)[O-])cc1[N+](=O)[O-] (stereo not given)', '17.6 µM (inactive)'),
  ('N/C(=N\O)N/N=C\c1c(O)cc(O)cc1O', '14.3 µM (inactive)'),
  ('CC1[C@@H]2CC=C3[C@H]4CCC5Cc6nc7c(nc6C[C@@]5(C)C4CC(=O)[C@]32CO[C@]12OC(C)(C)CC2O)CC1CC[C@@H]2C3=C[C@H]4O[C@@]5(O[C@@](C)(CO)C[C@@H]5O)C(C)[C@@]4(O)[C@]3(C)[C@@H](O)CC2[C@]1(C)C7 (stereo not given in full)', '0.000105 µM (active)'),
  ('Nc1nc(N)c2ncn(CCOC(c3ccccc3)P(=O)(O)O)c2n1 (stereo not given)', '> 100 µM (inactive)'),
  ('Cc1nc2c(n1Cc1ccc(F)cc1)C(=O)c1ccccc1C2=O', '6.43 µM (inactive)'),
  ('Cc1ccc(S(=O)(=O)N/N=C\c2c3ccccc3[n+]([O-])c3ccccc23)cc1', '3.41 µM (inactive)'),
  ('Cc1oc2c(C)c3oc(=O)cc(C)c3cc2c1CN1C(=O)C2OCCOCCOCCOCCOCCO[C@H]2C1=O (stereo not given in full)', '> 100 µM (inactive)');
